System: Pancreatin
assay-remarks: Protease stability in simulated intestinal fluid (Pancreatin-SIF, FaSSIF)
Format: in vitro ADME
condition-summary: 120 min, 1 μM peptide, 37° C., read-out: FaSSIF 120 (min), remaining percent of peptide
Starred links: 1 amine or outer side, 2 acyl side, 3 side chain; linkers in the order of their positions; H or OH if unused. Positions of bridges follow the written chain, without caps; N, C: chain ends. Non-standard residues stand in square brackets, D forms with d. Residues, ends and D or L forms follow the SMILES beside them. *: point of attachment. X3 = CN(CCCCC(=O)N[C@@H](CS[*:2])C(=O)[*:1])[*:3]; X6 = O=C(CCC(=O)[*:3])N[C@@H](CS[*:2])C(=O)[*:1]; Trp(7-Me) = Cc1cccc2c(C[C@H](N)C(=O)O)c[nH]c12; X1 = O=C(CCCCN[*:3])N[C@@H](CS[*:2])C(=O)[*:1]; 2Nal = N[C@@H](Cc1ccc2ccccc2c1)C(=O)O; AEF = NCCOc1ccc(C[C@H](N)C(=O)O)cc1; 3Pal = N[C@@H](Cc1cccnc1)C(=O)O; αMeL = CC(C)C[C@](C)(N)C(=O)O; Thp = NC1(C(=O)O)CCOCC1; Me2NCH2CH2 = CN(C)CC*; Aib = CC(C)(N)C(=O)O; Ava = NCCCCC(=O)O; Sar = CNCC(=O)O
measure: remaining at 2 h, 1 µM (%)
State just the number; it will be interpreted in %.

In the examples that follow, each entry is paired with its recorded remaining at 2 h, 1 µM.
molecule	remaining at 2 h, 1 µM / %
CC(=O)N[C@H]1CCCCNC(=O)[C@@H]2CSSC[C@H](NC(=O)[C@H](CCC(N)=O)NC(=O)[C@H](Cc3c[nH]c4ccccc34)NC1=O)C(=O)N[C@@H](Cc1ccc(OCCN)cc1)C(=O)N[C@@H](Cc1ccc3ccccc3c1)C(=O)N[C@@](C)(CC(C)C)C(=O)N[C@H](C(=O)N[C@@H](CC(N)=O)C(=O)N[C@@H](CC(N)=O)C(N)=O)CCC(=O)N(C)CCCCC(=O)N2 [compound 14] (Ac-KWQC[AEF][2Nal][αMeL]ENN-NH2; linker 1-4-8 via X3)	68
CC(=O)NCCCC[C@@H]1NC(=O)[C@H](Cc2c[nH]c3c(C)cccc23)NC(=O)[C@@H](NC(C)=O)CCCCNC(=O)[C@@H]2CSSC[C@H](NC1=O)C(=O)N[C@@H](Cc1ccc(OCCN(C)C)cc1)C(=O)N[C@@H](Cc1ccc3ccccc3c1)C(=O)NC(C)(C)C(=O)N[C@H](C(=O)N[C@@H](CC(N)=O)C(=O)N[C@@H](Cc1cccnc1)C(=O)N(C)CC(N)=O)CCCCNC(=O)CCC(=O)N2 [compound 104] (Ac-K[Trp(7-Me)]K(Ac)CY(Me2NCH2CH2)[2Nal][Aib]KN[3Pal][Sar]-NH2; linker 1-4-8 via X6)	80
Cc1cccc2c(C[C@@H]3NC(=O)[C@H]([C@@H](C)O)NC(=O)[C@H](CC(N)=O)NC(=O)[C@@H]4CSSC[C@H](NC(=O)[C@H](CC(C)C)NC3=O)C(=O)N[C@@H](Cc3ccc(OCCN(C)C)cc3)C(=O)N[C@@H](Cc3ccc5ccccc5c3)C(=O)NC3(CCOCC3)C(=O)N[C@H](C(=O)N[C@@H](CC(N)=O)C(=O)N[C@@H](Cc3cccnc3)C(=O)N(C)CC(N)=O)CCC(=O)NCCCCC(=O)N4)c[nH]c12 [compound 24] ([Ava]CNT[Trp(7-Me)]LCY(Me2NCH2CH2)[2Nal][Thp]EN[3Pal][Sar]-NH2; disulfide 2-7; lactam N-11)	79

Next item in the queue.
Task: Please state recorded remaining at 2 h, 1 µM (tested on Pancreatin) of CC(=O)N[C@H]1CCCCNC(=O)[C@@H]2CSSC[C@H](NC(=O)[C@H](CCC(N)=O)NC(=O)[C@H](Cc3c[nH]c4ccccc34)NC1=O)C(=O)N[C@@H](Cc1ccc(OCCN(C)C)cc1)C(=O)N[C@@H](Cc1ccc3ccccc3c1)C(=O)NC(C)(C)C(=O)N[C@H](C(=O)N[C@@H](CC(N)=O)C(=O)NCC(N)=O)CCC(=O)NCCCCC(=O)N2 [compound 29] (Ac-KWQCY(Me2NCH2CH2)[2Nal][Aib]ENG-NH2; linker 1-4-8 via X1)
Output: 58
